# MEASURED_TARGET: hPPARalpha (Homo sapiens)
# Construct: expressed in transfected cells; host or cells: COS-7 (monkey kidney fibroblasts)
# Sequence (Q07869 239-466 limits assumed): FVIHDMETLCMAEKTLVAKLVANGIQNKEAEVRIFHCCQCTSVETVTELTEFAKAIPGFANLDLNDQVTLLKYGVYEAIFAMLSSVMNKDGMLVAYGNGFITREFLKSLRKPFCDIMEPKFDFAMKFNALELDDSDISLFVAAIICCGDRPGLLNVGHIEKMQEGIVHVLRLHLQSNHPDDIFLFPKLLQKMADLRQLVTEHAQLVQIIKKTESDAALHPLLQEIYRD
# PROTOCOL_NOTES: PPAR activation: Gal4-hPPARα chimera luciferase transactivation in COS-7 cells, Method 2
# Assay type: cell-based
# PROTOCOL_CONDITIONS: COS-7, 24 h, maximum percentage response relative to the reference phenofibric acid, read-out: hPPARalpha % max
MEASURE: Emax (%)

MOLECULE	MEASURED_NUMBER
COC(CCc1ccc(OC(C)(C)C(=O)O)c(Cl)c1Cl)c1ccc(-c2ccc(C(F)(F)F)cc2)o1 (centres unmarked)	59
O=C(O)COc1ccc(CCC(=O)c2ccc(-c3ccc(C(F)(F)F)cc3)s2)cc1F	55
CC(C)(Oc1ccc(CCC(=O)c2ccc(-c3ccc(Br)cc3)s2)c(Cl)c1Cl)C(=O)O	53
Cc1cc(CCC(=O)c2ccc(-c3ccc(C(F)(F)F)cc3)s2)ccc1OC(C)(C)C(=O)O	47
CC(C)(Oc1ccc(CCC(=O)c2ccc(-c3ccc(C(F)(F)F)cc3)s2)cc1)C(=O)O	45

[A] CC(C)(Oc1ccc(CCC(OCc2ccccc2)c2ccc(-c3ccc(C(F)(F)F)cc3)s2)c(F)c1F)C(=O)O (centres unmarked)
[B] CC(C)OC(CCc1ccc(OC(C)(C)C(=O)O)c(Cl)c1Cl)c1ccc(-c2ccc(C(F)(F)F)cc2)s1 (centres unmarked)
Data request: Returns the identifier with the smallest measured Emax among A and B . Lab note: record the label of whichever item you select.
Data returned: B
(B: 25%, A: 46%)

[1] CC(C)(Oc1ccc(CCC(=O)c2ccc(-c3ccc(C(F)(F)F)cc3)o2)c(Cl)c1Cl)C(=O)O
[2] CC(C)(Oc1ccc(CCC(OCC2CCCCC2)c2ccc(-c3ccc(C(F)(F)F)cc3)s2)c(Cl)c1Cl)C(=O)O (centres unmarked)
Data request: Of the two listed items, which has the higher Emax? First: 1 Second: 2 Lab note: record the label of whichever item you select.
Data returned: 1
(1: 44%, 2: 28%)
